System: 485176-168-R4-J1-PDC spheroids with HUVEC/MSC, viability;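 also: spheroids exposed to compounds for seven days before readout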
Test: Anticancer human tumor 485176-168-R4-J1-PDC patient-derived pancreatic adenocarcinoma cell line growth inhibition [GQUAD]
Details: second compound 3.16 µM; first compound 1 µM; stronger effect = lower value
Label t when viability, T/C is strictly below 30%; at or above that, label f.

Examples with answers:
Compound	Assigned category
CC(=O)O[C@H]1C(=O)[C@@]2(C)[C@H]([C@H](OC(=O)c3ccccc3)[C@]3(O)C[C@H](OC(=O)[C@H](O)[C@@H](NC(=O)c4ccccc4)c4ccccc4)C(C)=C1C3(C)C)[C@]1(OC(C)=O)CO[C@@H]1C[C@@H]2O + CN(C)c1ccc(Nc2c3ccc(NC(=O)CCN4CCCC4)cc3nc3cc(NC(=O)CCN4CCCC4)ccc23)cc1	t
CC(C)(O)C1CCC(Nc2ccc3ncc(-c4cccc(C(F)(F)F)c4)n3n2)CC1 (centres undefined) + Cc1cnc(CNC(=O)c2c(=O)c3ccc(N4CCCN(C)CC4)nc3n3c2sc2ccccc23)cn1	f
CC(C)(O)C1CCC(Nc2ccc3ncc(-c4cccc(C(F)(F)F)c4)n3n2)CC1 (centres undefined) + CN(C)c1ccc(Nc2c3ccc(NC(=O)CCN4CCCC4)cc3nc3cc(NC(=O)CCN4CCCC4)ccc23)cc1	f
Nc1ccn(C2OC(CO)C(O)C2(F)F)c(=O)n1 (centres undefined) + Cc1[nH]c2ccc(F)cc2c1-c1nc2c3cccnc3c3ncccc3c2[nH]1	t

-- ask Is viability, T/C of O=C(NO)c1cnc(N2CCN(S(=O)(=O)c3ccc4ccccc4c3)CC2)nc1 + Cc1[nH]c2ccc(F)cc2c1-c1nc2c3cccnc3c3ncccc3c2[nH]1 strictly below 30%?
-- reply f

-- ask Is viability, T/C of C#Cc1c(F)ccc2cc(O)cc(-c3ncc4c(N5CC6CCC(C5)N6)nc(OCC56CCCN5CC(F)C6)nc4c3F)c12 (centres undefined) + Cc1[nH]c2ccc(F)cc2c1-c1nc2c3cccnc3c3ncccc3c2[nH]1 strictly below 30%?
-- reply f

-- ask Is viability, T/C of CC1COCCN1c1cc(C2(S(C)(=N)=O)CC2)nc(-c2ccnc3[nH]ccc23)n1 (centres undefined) + CN(C)c1ccc(Nc2c3ccc(NC(=O)CCN4CCCC4)cc3nc3cc(NC(=O)CCN4CCCC4)ccc23)cc1 strictly below 30%?
-- reply f

-- ask Is viability, T/C of CC(=O)O[C@H]1C(=O)[C@@]2(C)[C@H]([C@H](OC(=O)c3ccccc3)[C@]3(O)C[C@H](OC(=O)[C@H](O)[C@@H](NC(=O)c4ccccc4)c4ccccc4)C(C)=C1C3(C)C)[C@]1(OC(C)=O)CO[C@@H]1C[C@@H]2O + Cc1[nH]c2ccc(F)cc2c1-c1nc2c3cccnc3c3ncccc3c2[nH]1 strictly below 30%?
-- reply t
